Target: IFN-α4a (human, UniProt P05014 24-189)
Assay: cell-based or functional assay
So I've got a bunch of binders here, and I need their IC50 (pM), ISRE assay values.
One number for each entry, in pM.

{"Binder": "IFWM3314 (antibody, IgG1, V domains shown) VH: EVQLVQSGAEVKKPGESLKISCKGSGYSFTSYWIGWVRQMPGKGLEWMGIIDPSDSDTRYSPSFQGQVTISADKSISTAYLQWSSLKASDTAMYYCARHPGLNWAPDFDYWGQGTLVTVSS VL: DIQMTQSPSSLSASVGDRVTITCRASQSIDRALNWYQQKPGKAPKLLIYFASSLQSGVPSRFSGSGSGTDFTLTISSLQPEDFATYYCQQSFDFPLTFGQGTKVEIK", "IC50 (pM), ISRE assay": 137}

**Q:** Query: IC50 (pM), ISRE assay; subject: IFWM3410 (antibody, IgG1, V domains shown) VH: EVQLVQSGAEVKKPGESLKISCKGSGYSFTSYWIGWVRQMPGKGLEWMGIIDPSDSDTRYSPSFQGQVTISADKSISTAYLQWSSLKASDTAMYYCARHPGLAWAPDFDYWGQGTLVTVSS VL: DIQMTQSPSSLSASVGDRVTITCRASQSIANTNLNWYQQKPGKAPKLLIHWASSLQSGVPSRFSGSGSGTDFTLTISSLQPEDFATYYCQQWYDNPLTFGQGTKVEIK
**A:** 192

These measurements were taken from patent US20150368338A1.
